Test system: RXF 393
Experiment: NCI tumour cell line growth inhibition, 48 h
Active and inactive are the calls of the source. Rule as the data show it: active = GI50 up to about 1.1 µM and inactive = higher.
ENDPOINT_LABEL: GI50

Query :: Identify measured GI50 corresponding to `O=C1/C(=C\c2ccccc2)CN(C(=O)CCN2CCCCC2)C/C1=C/c1ccccc1`
Result :: 1.95 µM (inactive)

Query :: Identify measured GI50 corresponding to `COCCOC(=O)C(C)=[N+]=[N-]`
Result :: > 100 µM (inactive)

Query :: Identify measured GI50 corresponding to `O=[N+]([O-])c1cc(Cl)ccc1OCc1ccccc1`
Result :: 47.3 µM (inactive)

Query :: Identify measured GI50 corresponding to CCC(NC1=NCCO1)c1cccs1 (stereo not given)
Result :: 19 µM (inactive)

Query :: Identify measured GI50 corresponding to `CCOC(=O)CC(=O)Nc1c(C(=O)OCC)sc2nc(SC)nc(Nc3ccc(OC)c(OC)c3)c12`
Result :: 10.7 µM (inactive)

====

System: CAKI-1
Assay: NCI tumour cell line growth inhibition, 48 h
Active and inactive are the calls of the source. No stated cut-off is given here; in the data, active = GI50 up to about 1.1 µM and inactive = higher.
Tick one outcome: active, inactive

Query :: Returns: the outcome recorded for `Nc1ccccc1-c1noc(=O)[nH]1` in this assay.
Result :: inactive

Query :: Returns: the outcome recorded for `COc1cc2ccc(CC(=O)O)cc2cc1OC` in this assay.
Result :: inactive

Query :: Returns: the outcome recorded for CCOC(=O)CC1c2ccc(O)cc2OC(=O)C1c1ccc([N+](=O)[O-])cc1 (stereo unspecified) in this assay.
Result :: inactive

Query :: Returns: the outcome recorded for `O=C(c1cccc2cc(O)ccc12)c1cn(CCN2CCOCC2)c2ccccc12` in this assay.
Result :: inactive

Query :: Returns: the outcome recorded for CN(Cc1cnc2nc(N)nc(N)c2n1)c1ccc(C(=O)NC(CCC(=O)NC(P(=O)(O)O)P(=O)(O)O)C(=O)O)cc1 (stereo unspecified) in this assay.
Result :: inactive

Query :: Returns: the outcome recorded for C[C@]12CC[C@@H]3c4cc(C=O)c(OCc5ccccc5)cc4CC[C@H]3[C@@H]1CCC2OCc1ccccc1 (stereo partly specified) in this assay.
Result :: inactive

Query :: Returns: the outcome recorded for CCN1CC2(CO)CCC(OC)C34C5CC6C(OC)CC(O)(C5C6OC)C(O)(C(OC)C23)C14 (stereo unspecified) in this assay.
Result :: inactive

Query :: Returns: the outcome recorded for COc1c2c3c4c(c(OC)c(=O)c5c(O)cc(OC)c(c6c(OC)cc(O)c(c1=O)c63)c54)C(C(C)O)C2C(C)=O (stereo unspecified) in this assay.
Result :: active

Query :: Returns: the outcome recorded for `O[C@H]1[C@H](O)[C@@H](O)CN2CC[C@H](O)[C@H]12` in this assay.
Result :: inactive

Query :: Returns: the outcome recorded for `FC(F)(F)c1cccc(-c2nc3ccccc3c3c2[C@@]2(N4CCCC4)CCCC[C@@H]32)c1` in this assay.
Result :: inactive

Query :: Returns: the outcome recorded for `Cc1ccc(NC(=S)N/N=C(/c2ccccc2)c2ccccn2)cc1` in this assay.
Result :: active

Query :: Returns: the outcome recorded for Cc1ccc2[nH]c(=O)c(C(C#N)c3ccccc3)nc2c1 (stereo unspecified) in this assay.
Result :: inactive

Query :: Returns: the outcome recorded for `N=CCCN(CCC=N)c1ccc(/C=C2\CN(NC(=O)c3ccc(Cl)cc3)C(c3ccccc3)=N2)cc1` in this assay.
Result :: inactive

Query :: Returns: the outcome recorded for CNC(=O)OC(C)CN1c2ccccc2Sc2ccccc21 (stereo unspecified) in this assay.
Result :: inactive

Query :: Returns: the outcome recorded for `COc1ccc(C2C(C#N)=C(O)NC(O)=C2C#N)cc1OC` in this assay.
Result :: inactive

Query :: Returns: the outcome recorded for OC1c2ccccc2C2C(O)c3ccccc3C12 (stereo unspecified) in this assay.
Result :: inactive

Query :: Returns: the outcome recorded for O=C(/C=C/c1ccc(O)c(O)c1)OCC(OC(=O)/C=C/c1ccc(O)c(O)c1)C(=O)O (stereo unspecified) in this assay.
Result :: inactive

Query :: Returns: the outcome recorded for O=C(O)CCC1COc2ccccc2O1 (stereo unspecified) in this assay.
Result :: inactive

Query :: Returns: the outcome recorded for C=C(C)C1CC/C(C)=C/CC[C@]2(C)O[C@H]2CC/C(COC(C)=O)=C\[C@@H]1O (stereo partly specified) in this assay.
Result :: inactive

Query :: Returns: the outcome recorded for `Cc1c(/C=N/NC(=S)Nc2ccccc2Cl)c(=O)n(-c2ccccc2)n1C` in this assay.
Result :: inactive

Query :: Returns: the outcome recorded for `COc1cc2c3cc1Oc1c(O)c(OC)cc4c1[C@H](Cc1ccc(cc1)Oc1cc(ccc1O)C[C@H]3N(C)CC2)N(C)CC4` in this assay.
Result :: inactive

Query :: Returns: the outcome recorded for CC1(C)CC[C@]2(C(=O)O)[C@H](O)C[C@]3(C)C(=CC[C@@H]4[C@@]5(C)CC[C@H](OC6OC(C(=O)O)C(O)C(O)C6O)C(C)(C)[C@@H]5CC[C@]43C)[C@@H]2C1 (stereo partly specified) in this assay.
Result :: inactive

Query :: Returns: the outcome recorded for `CCN(CC)CCCNc1nncc2c(C)c3[nH]c4ccc(OC)cc4c3cc12` in this assay.
Result :: inactive

Query :: Returns: the outcome recorded for `N#CN1C2CCC1CC(=O)C2` in this assay.
Result :: inactive

Query :: Returns: the outcome recorded for CC(=O)OCC1=C2C(OC(=O)C(C)C)CC3(COC(C)=O)OC3/C=C\C3(C)OC3C2OC1=O (stereo unspecified) in this assay.
Result :: inactive

Query :: Returns: the outcome recorded for `Cc1ccc(/C=C2/NC(=S)SC2=O)cc1` in this assay.
Result :: inactive

Query :: Returns: the outcome recorded for O=C(O)c1ccccc1CC(Cc1ccccc1)C(=O)O (stereo unspecified) in this assay.
Result :: inactive

Query :: Returns: the outcome recorded for `COC(=O)C1=C(C)NC(C)=C(C(=O)OC)C1c1cccc(N=O)c1` in this assay.
Result :: inactive

Query :: Returns: the outcome recorded for OC(COC(c1ccccc1)(c1ccccc1)c1ccccc1)C(O)CC1SCCS1 (stereo unspecified) in this assay.
Result :: inactive

Query :: Returns: the outcome recorded for `CCN(C(=O)N[C@H](C(=O)N[C@@H](CSC)C(=O)N[C@@H](C)C(=O)OC)C(C)C)c1ccccc1` in this assay.
Result :: inactive

Query :: Returns: the outcome recorded for `Cc1ccccc1N1C(=O)/C(=C/c2ccc(N(CCC#N)CCC#N)cc2)N=C1c1cc([N+](=O)[O-])ccc1Cl` in this assay.
Result :: inactive
